Consider the following compounds; for each one, report its CC50 at 96 h.
# Assay: Cell toxicity (cell growth inhibition assay, MTT uptake)
# Format: cell-based
# Run Conditions: monkey, 50% inhibition of cell viability at 96 hours, Vero cells, read-out: Cytoxicity CClD50

// below: answered compounds
> print(dat)
                            chemical.smiles   metric.name    result
1  O=C1NC(=O)c2c1c1c3cc(Cl)ccc3[nH]c1c1[nH]c3ccc(Cl)cc3c21  CC50 at 96 h  > 125 µM
2  O=C1c2c(c3c4ccccc4[nH]c3c3[nH]c4ccccc4c23)C(=O)N1Cc1cc(C(F)(F)F)cc(C(F)(F)F)c1  CC50 at 96 h  > 125 µM

Lookup: Give its CC50 at 96 h value. Item: `O=C1c2c(c3c4ccccc4[nH]c3c3[nH]c4ccccc4c23)C(=O)N1Cc1cccc(C(F)(F)F)c1`
Found: > 500 µM
